Listed here are molecules together with their documented pEC50.
- target or system: full length human TREX1 (Homo sapiens)
- Construct: N-terminally His-Tev tagged full length human TREX1; His-Tev (His tag with TEV protease site) (N)
- Sequence (Q9NSU2 whole entry): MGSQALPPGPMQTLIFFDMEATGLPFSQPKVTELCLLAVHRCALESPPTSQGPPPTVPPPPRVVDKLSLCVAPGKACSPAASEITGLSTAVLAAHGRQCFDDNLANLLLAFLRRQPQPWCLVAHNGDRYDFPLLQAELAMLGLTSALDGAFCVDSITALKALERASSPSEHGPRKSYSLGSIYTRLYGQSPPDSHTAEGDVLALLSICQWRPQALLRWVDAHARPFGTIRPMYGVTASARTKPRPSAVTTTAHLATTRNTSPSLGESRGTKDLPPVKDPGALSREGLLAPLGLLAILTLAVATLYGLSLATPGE
- assay summary: TREX1 Biochemical Assay (fluorescence assay, degradation of dsDNA substrate)
- assay setup: 150 pM TREX1, 60 nM dsDNA substrate, 25 minutes at room temperature; read-out: hTREX1 EC50
pEC50: −log10 of the molar value.

O=C(c1ccc(F)c(Cl)c1)N(Cc1cccnc1)Cc1cc(Cl)cc(Cl)c1 ... 5.00 to 6.00

Req: Retrieve pEC50 measured for `O=C(c1cccc(F)c1)N(Cc1cccnc1)Cc1cc(Cl)cc(Cl)c1` and print it.
Resp: < 5.00

Req: Retrieve pEC50 measured for `O=C(c1cccc(F)c1)N(Cc1cccnn1)Cc1ccc(Cl)cc1Cl` and print it.
Resp: < 5.00

Req: Retrieve pEC50 measured for `O=C(c1cccc(Oc2ccccc2)c1)N(Cc1cccnc1)Cc1ccc(Cl)cc1Cl` and print it.
Resp: < 5.00

Req: Retrieve pEC50 measured for `COC(=O)C[C@@H](c1ccc(Cl)cc1Cl)N(Cc1cccnc1)C(=O)c1cc(F)cc(F)c1` and print it.
Resp: 5.00 to 6.00

Req: Retrieve pEC50 measured for `O=C(CN1CCCC1)N(Cc1cccnc1)Cc1ccc(Cl)cc1Cl` and print it.
Resp: < 5.00

Req: Retrieve pEC50 measured for `O=C(O)c1ccc(CN(Cc2sc(Cl)nc2Cl)C(=O)c2cc(F)cc(F)c2)cn1` and print it.
Resp: 6.00 to 7.00

Req: Retrieve pEC50 measured for `O=C(O)c1ccc(CN(Cc2cccc(Cl)c2Cl)C(=O)c2cccc(F)c2)cn1` and print it.
Resp: > 7.00
